So I've got a bunch of molecules here, and I need their pIC50 values.
Target: IRAK4 enzyme (Homo sapiens (Human))
Sequence (Q9NWZ3 whole entry): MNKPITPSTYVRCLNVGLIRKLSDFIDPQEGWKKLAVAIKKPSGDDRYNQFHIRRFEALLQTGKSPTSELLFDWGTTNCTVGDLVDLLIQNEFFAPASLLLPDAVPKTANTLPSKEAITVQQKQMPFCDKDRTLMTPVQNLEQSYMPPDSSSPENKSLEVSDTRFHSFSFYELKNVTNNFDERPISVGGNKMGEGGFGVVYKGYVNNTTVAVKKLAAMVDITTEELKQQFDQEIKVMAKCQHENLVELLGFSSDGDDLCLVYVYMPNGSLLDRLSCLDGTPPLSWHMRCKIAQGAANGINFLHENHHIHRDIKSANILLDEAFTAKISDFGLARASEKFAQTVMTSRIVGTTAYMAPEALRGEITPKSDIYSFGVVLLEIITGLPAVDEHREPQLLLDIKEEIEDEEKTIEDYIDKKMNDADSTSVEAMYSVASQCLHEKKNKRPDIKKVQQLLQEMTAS
Assay: biochemical
Type: biochemical
Settings: IRAK4 enzyme, TR-FRET, 500 μM ATP
Give bare numbers, as −log10 of the molar value.

Sample records with pIC50:
molecule="CC(C)(O)[C@H](F)CNC(=O)c1cnc(-c2ccc3cc(C#N)cnn23)cc1NC1CCC(C(=O)N2CC(F)(F)C2)CC1 (stereo partly shown) [Example 174]" meas_value=9.00
molecule="CC(C)Nc1cc(-c2ccc3cc(C#N)cnn23)ncc1C(=O)N[C@H]1CCOC[C@@H]1F [Example 322]" meas_value=8.30
molecule="CC(C)Nc1cc(-c2ccc3cc(C#N)cnn23)ncc1C(=O)N[C@H]1C[C@@](C)(O)C1 [Example 120]" meas_value=8.10

Fill in pIC50 for each of the 6 molecules listed.
1. CC(C)(O)[C@H](F)CNC(=O)c1cnc(-c2ccc3cc(C#N)cnn23)cc1N[C@H]1C[C@@H]2C[C@H]1CN2 [Example 32]
2. CC(C)(O)[C@H](F)CNC(=O)c1cnc(-c2ccc3cc(C#N)cnn23)cc1NC[C@H]1CCN1CC(F)(F)F [Example 894]
3. COC[C@@H]1CCCN1c1ccc(Nc2cc(-c3ccc4cc(C#N)cnn34)ncc2C(=O)NC[C@@H](F)C(C)(C)O)cn1 [Example 884]
4. CC(C)Nc1cc(-c2ccc3cc(C#N)cnn23)ncc1C(=O)NCC1(O)CCS(=O)(=O)C1 (stereo not shown) [Example 122]
5. CC(C)Nc1cc(-c2ccc3cc(C#N)cnn23)ncc1C(=O)NCCNS(C)(=O)=O [Example 88]
6. CC(C)(O)[C@H](F)CNC(=O)c1cnc(-c2ccc3cc(C#N)cnn23)cc1NCC1CCS(=O)(=O)C1 (stereo partly shown) [Example 74]

Result:
1: 8.52; 2: 8.15; 3: 8.70; 4: 7.77; 5: 8.52; 6: 8.70

Fill in pIC50 for each of the 7 molecules listed.
1. COc1ccc2nc(Nc3cc(-c4ccc5cc(C#N)cnn45)ncc3C(=O)NC[C@@H](F)C(C)(C)O)sc2c1 [Example 376]
2. CC(C)Nc1cc(-c2ccc3cc(C#N)cnn23)ncc1C(=O)N[C@H]1CCC[C@@H](O)C1 [Example 190]
3. CC(C)(O)[C@H](F)CNC(=O)c1cnc(-c2ccc3cc(C#N)cnn23)cc1Nc1cnn2c1CCCC2 [Example 129]
4. CC(C)(O)[C@H](F)CNC(=O)c1cnc(-c2ccc3cc(C#N)cnn23)cc1N[C@@H]1C[C@H]2CNC[C@H]2C1 [Example 251]
5. CC(C)(O)[C@H](F)CNC(=O)c1cnc(-c2ccc3cc(C#N)cnn23)cc1NCC1CC1(F)F (stereo partly shown) [Example 137]
6. CCC(=O)N[C@H]1CC[C@H](Nc2cc(-c3ccc4cc(C#N)cnn34)ncc2C(=O)NC[C@@H](F)C(C)(C)O)CC1 [Example 299]
7. CC(C)(O)[C@H](F)CNC(=O)c1cnc(-c2ccc3cc(C#N)cnn23)cc1N[C@H]1C[C@H](OC(=O)NC2CC2)C1 [Example 160]

Result:
8.70
8.10
8.22
9.00
8.70
9.00
6.33

Fill in pIC50 for each of the 2 molecules listed.
1. CC(C)(O)[C@H](F)CNC(=O)c1cnc(-c2ccc3cc(C#N)cnn23)cc1NC[C@@H]1COCCN1 [Example 917]
2. Cn1ccc(CNC(=O)c2cnc(-c3ccc4cc(C#N)cnn34)cc2NC23CCC(O)(CC2)CC3)n1 [Example 935]

Result:
1: 9.00; 2: 8.70
